target: ITK (Homo sapiens); construct: the DNA-tagged SH2 domain concentrations used in this study were <0.1 nM; made in house; host or cells: HEK293 (transient transfection, unpurified extract); assay: biochemical; assay type: binding; settings: primary screen, 10 μM
Sequence (Q08881 239-338 limits assumed): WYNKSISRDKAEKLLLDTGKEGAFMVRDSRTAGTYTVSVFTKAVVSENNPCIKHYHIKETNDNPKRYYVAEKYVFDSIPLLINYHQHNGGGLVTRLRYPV
Non-standard residues stand in square brackets, D forms with d. Residues, ends and D or L forms follow the SMILES beside them. *: point of attachment. pY = N[C@@H](Cc1ccc(OP(=O)(O)O)cc1)C(=O)O; Caffeoyl = O=C(/C=C/c1ccc(O)c(O)c1)*
Reported percent of DMSO vehicle control values follow for various compounds
Answer with a number only, understood to be in %.

CC(=O)N[C@@H](Cc1ccc(CP(=O)(O)O)cc1)C(=O)NC1(C(=O)N[C@@H](CC(N)=O)C(=O)NCCCc2c(O)ccc3ccccc23)CCCCC1 :: 113.6
NC(=O)CC[C@H](NC(=O)[C@@H]1CC[C@@H]2CCN(C(=O)CCCCCC#Cc3cccc4c3CN(C3CCC(=O)NC3=O)C4=O)C[C@H](NC(=O)c3cc4cc(C(F)(F)P(=O)(O)O)ccc4[nH]3)C(=O)N21)C(=O)NC(c1ccccc1)c1ccccc1 (stereo partly drawn) :: 94.0
C/C(=C\C(=O)N[C@H](C(=O)N1CCC[C@H]1C(=O)N(c1ccccc1)c1ccc(I)cc1)C(C)(C)C)c1ccc(OP(=O)(O)O)cc1 :: 0.0
CC[C@H](C)[C@H](NC(=O)[C@H](CCC(=O)O)NC(=O)[C@H](CCC(=O)O)NC(=O)[C@H](Cc1ccc(OP(=O)(O)O)cc1)NC(=O)/C=C/c1ccc(O)c(O)c1)C(=O)N[C@@H](CCC(=O)O)C(=O)O [Caffeic acid-pYEEIE] (Caffeoyl-[pY]EEIE-OH) :: 3.1
CC[C@H](C)[C@H](NC(=O)[C@H](CCC(=O)O)NC(=O)[C@H](CCC(=O)O)NC(=O)[C@H](Cc1ccc(OP(=O)(O)O)cc1)NC(C)=O)C(=O)N[C@@H](CCC(=O)O)C(N)=O [Ac-pYEEIE-NH2] (Ac-[pY]EEIE-NH2) :: 122.5

Problem: Please report the measured percent of DMSO vehicle control for `O=C(COc1ccc2cc(C(=O)Nc3ccccc3)ccc2c1)NCc1ccc(OP(=O)(O)O)c(OP(=O)(O)O)c1`
Solution: 0

---

Catalogue of compounds with associated Kd
target: STAT2 (Homo sapiens); construct: made in house; host or cells: HEK293 (transient transfection), unpurified extract; test: biochemical; type: binding; settings: dose-response; read-out: KD
Sequence (P52630 whole entry): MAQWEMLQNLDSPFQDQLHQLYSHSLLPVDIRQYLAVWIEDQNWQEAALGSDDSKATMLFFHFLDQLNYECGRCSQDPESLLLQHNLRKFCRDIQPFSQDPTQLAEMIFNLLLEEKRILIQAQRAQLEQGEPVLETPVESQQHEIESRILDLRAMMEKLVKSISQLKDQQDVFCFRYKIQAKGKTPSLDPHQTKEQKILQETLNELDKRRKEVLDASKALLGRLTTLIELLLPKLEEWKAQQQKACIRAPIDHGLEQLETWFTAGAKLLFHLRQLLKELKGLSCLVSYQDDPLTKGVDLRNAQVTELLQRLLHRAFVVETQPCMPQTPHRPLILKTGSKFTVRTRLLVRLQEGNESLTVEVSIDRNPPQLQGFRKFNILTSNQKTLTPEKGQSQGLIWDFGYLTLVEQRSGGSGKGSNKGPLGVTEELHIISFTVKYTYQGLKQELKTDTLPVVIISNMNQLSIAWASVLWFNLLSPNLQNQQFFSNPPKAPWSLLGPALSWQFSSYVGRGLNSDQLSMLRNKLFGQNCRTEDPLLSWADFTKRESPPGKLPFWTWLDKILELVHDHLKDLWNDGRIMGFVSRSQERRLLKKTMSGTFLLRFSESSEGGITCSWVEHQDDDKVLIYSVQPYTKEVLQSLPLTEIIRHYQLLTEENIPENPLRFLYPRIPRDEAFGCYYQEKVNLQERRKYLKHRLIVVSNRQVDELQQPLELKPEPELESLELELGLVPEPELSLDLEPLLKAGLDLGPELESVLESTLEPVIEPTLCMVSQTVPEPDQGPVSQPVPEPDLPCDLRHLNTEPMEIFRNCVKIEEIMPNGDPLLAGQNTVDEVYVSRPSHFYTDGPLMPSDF
# value in µM; strip the unit string

CC(C)(C)[C@H](NC(=O)/C=C/c1ccc(OP(=O)(O)O)cc1)C(=O)N1CCC[C@H]1C(=O)N(c1ccccc1)c1ccc(I)cc1 :: 0.51

As a next step, examine the compound that follows.
Problem: Please indicate Kd recorded for `O=C(COc1ccc2cc(C(=O)Nc3ccccc3)ccc2c1)NCc1ccc(OP(=O)(O)O)c(OP(=O)(O)O)c1`
Solution: 9.3

---

target: GRB2 (Homo sapiens); construct: the DNA-tagged SH2 domain concentrations used in this study were <0.1 nM; made in house; host or cells: HEK293 (transient transfection; unpurified extract); experiment: biochemical; format: binding; conditions: primary screen, 10 μM
Sequence (P62993 60-152 limits assumed): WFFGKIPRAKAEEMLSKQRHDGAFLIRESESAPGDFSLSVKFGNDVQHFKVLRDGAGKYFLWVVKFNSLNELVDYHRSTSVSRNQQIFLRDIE
Reported percent of DMSO vehicle control by item:
Value expressed in %; do not type the unit.

CC(=O)N[C@@H](Cc1ccc(CP(=O)(O)O)cc1)C(=O)NC1(C(=O)N[C@@H](CC(N)=O)C(=O)NCCCc2c(O)ccc3ccccc23)CCCCC1 :: 0.0
CC(C)(C)[C@H](NC(=O)/C=C/c1ccc(OP(=O)(O)O)cc1)C(=O)N1CCC[C@H]1C(=O)N(c1ccccc1)c1ccc(I)cc1 :: 72.4

Let's switch to this molecule now.
Problem: Entry `O=C(COc1ccc2cc(C(=O)Nc3ccccc3)ccc2c1)NCc1ccc(OP(=O)(O)O)c(OP(=O)(O)O)c1` needs its percent of DMSO vehicle control filled in; supply it.
Solution: 79.5
